target_or_system: T1, human CD37 (human, UniProt P11049 1-278)
T1 construct: Tetraspanin antigen; Expressed on 300-19 cells transfected with pSRa-CD37 (entire CDS) or endogenous on WSU-DLCL-2, BJAB and Ramos lymphoma cells; also called CD37 antigen; human CD37 wildtype
T1 sequence: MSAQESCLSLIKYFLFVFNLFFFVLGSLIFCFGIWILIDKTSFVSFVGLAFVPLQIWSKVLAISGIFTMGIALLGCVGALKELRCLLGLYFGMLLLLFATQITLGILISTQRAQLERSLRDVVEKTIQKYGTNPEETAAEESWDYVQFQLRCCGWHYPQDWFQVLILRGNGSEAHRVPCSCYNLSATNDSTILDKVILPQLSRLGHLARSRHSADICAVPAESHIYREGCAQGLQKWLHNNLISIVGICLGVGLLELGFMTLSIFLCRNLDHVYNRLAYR
assay_remarks: flow cytometry titration; apparent Kd; cells not named
pKd: −log10 of the molar value.
Reported pKd is given for each of the following binders.
readout_name: pKd

| binder | test_value |
| --- | --- |
| huCD37-3 (antibody, human IgG1, kappa, V domains shown, also called huCD37-3 Ab; huCD37-3 antibody) VH: QVQVQESGPGLVAPSQTLSITCTVSGFSLTTSGVSWVRQPPGKGLEWLGVIWGDGSTNYHPSLKSRLSIKKDHSKSQVFLKLNSLTAADTATYYCAKGGYSLAHWGQGTLVTVSS VL: DIQMTQSPSSLSVSVGERVTITCRASENIRSNLAWYQQKPGKSPKLLVNVATNLADGVPSRFSGSGSGTDYSLKINSLQPEDFGTYYCQHYWGTTWTFGQGTKLEIKR | 9.55 |
| huCD37-51-SMCC-DM1 (antibody, human IgG1, kappa, V domains shown, DM1 attached through SMCC linker; attachment residues and load not stated, SMCC-DM1 conjugate of huCD37-51) VH: EVQLVESGPEVLKPGESLSLTCTVSGYSISSGFAWHWIRQFPGKGLEWMGYIHYSGSTNYSPSLQGRISITRDSSINQFFLQLNSVTASDTATYYCARGYYGFGAWFVYWGQGTLVTVSA VL: EIVLTQSPATMSASPGERVTMTCSATSSVTYMHWYQQKPGQSPKRWIYDTSKLASGVPARFSGSGSGTSYSLTISSMEAEDAATYYCQQWSSNPPTFGQGTKLEIKR | 8.80 |
| huCD37-50-PEG4-mal-DM1 (antibody, human IgG1, kappa, V domains shown, DM1 attached through PEG4-mal linker; attachment residues and load not stated, PEG4-mal-DM1 conjugate of huCD37-50) VH: QVQLQESGPGLLKPSQSLSLTCTVSGYSITSGFAWHWIRQHPGNKLEWMGYILYSGSTVYSPSLKSRISITRDTSKNHFFLQLNSVTAADTATYYCARGYYGYGAWFAYWGQGTLVTVSA VL: EIVLTQSPATMSASPGERVTMTCSATSSVTYMHWYQQKPGQSPKRWIYDTSNLPYGVPARFSGSGSGTSYSLTISSMEAEDAATYYCQQWSDNPPTFGQGTKLEIKR | 8.96 |
| huCD37-56-SMCC-DM1 (antibody, human IgG1, kappa, V domains shown, DM1 attached through SMCC linker; attachment residues and load not stated, SMCC-DM1 conjugate of huCD37-56) VH: QVQLQESGPGLVKPSQSLSLTCTVSGYSITSGFAWHWIRQFPGKGLEWMGYIHYSGGTNYNPSLKSRVSITRDTSKNQFFLQLNSVTAADTATYYCARGYYGFGAWFAYWGQGTLVPVSA VL: DIVLTQSPAFMSASPGEKVTMTCSASSSVTYMHWYQQKPDQSPKRWIYDTSNLASGVPSRFSGGGSGTDYSLTISSMEAEDAATYYCQQWISDPPTFGQGTKLEIKR | 9.47 |
| huCD37-56 (antibody, human IgG1, kappa, V domains shown, Humanized antibody) VH: QVQLQESGPGLVKPSQSLSLTCTVSGYSITSGFAWHWIRQFPGKGLEWMGYIHYSGGTNYNPSLKSRVSITRDTSKNQFFLQLNSVTAADTATYYCARGYYGFGAWFAYWGQGTLVPVSA VL: DIVLTQSPAFMSASPGEKVTMTCSASSSVTYMHWYQQKPDQSPKRWIYDTSNLASGVPSRFSGGGSGTDYSLTISSMEAEDAATYYCQQWISDPPTFGQGTKLEIKR | 9.52 |
| huCD37-57-SMCC-DM1 (antibody, human IgG1, kappa, V domains shown, DM1 attached through SMCC linker; attachment residues and load not stated, SMCC-DM1 conjugate of huCD37-57) VH: QVQLQESGPGLLKPSQSLSLTCTVSGYSITSGFAWHWIRQFPGKGLEWMGYILYSGSTVYSPSLKSRISITRDTSKNQFFLQLNSVTAADTATYYCARGYYGYGAWFAYWGQGTLVTVSA VL: EIVLTQSPATMSASPGERVTMTCSATSSVTYMHWYQQKPGQSPRRWIYDTSNLASGVPARFSGSGSGTSYSLTISSMEAEDAATYYCQQWSDNPPTFGQGTKLEIKR | 9.47 |
| huCD37-57 (antibody, human IgG1, kappa, V domains shown, Humanized antibody) VH: QVQLQESGPGLLKPSQSLSLTCTVSGYSITSGFAWHWIRQFPGKGLEWMGYILYSGSTVYSPSLKSRISITRDTSKNQFFLQLNSVTAADTATYYCARGYYGYGAWFAYWGQGTLVTVSA VL: EIVLTQSPATMSASPGERVTMTCSATSSVTYMHWYQQKPGQSPRRWIYDTSNLASGVPARFSGSGSGTSYSLTISSMEAEDAATYYCQQWSDNPPTFGQGTKLEIKR | 9.52 |
